- SYSTEM TESTED: LC3C (purified, for ITC)
- ASSAY COMMENT: ITC
REPORTED METRIC: Kd (µM)
Answers are plain numbers, in µM.

Prompt: Query Kd for DGTLIIDLPDSY [LIR(TP[T]) peptide]
Response: 26.9
